Recorded values, source patent US20090036455A1.

Tested on: α1 adrenoceptor
Experiment: Radioligand binding assay, α1 adrenoceptor ([3H]prazosin, rat cerebral cortex membranes)
Settings: rat cerebral cortex membranes, [3H]prazosin; footnote to * not given
property.label: percent value (α1) (%*)

COc1cccc(N2CCN(CCCN3C(=O)C4CCCN4C3=O)[C@@H](C)C2)c1 (mixture of isomers); 56
C[C@H]1CN(c2ccc([N+](=O)[O-])c3ccccc23)CCN1CCCCN1C(=O)C2CCCN2C1=O (mixture of isomers) [(s)]; 66
C[C@@H]1CN(c2cccc(Cl)c2)CCN1CCCN1C(=O)C2CCCN2C1=O (mixture of isomers); 76
CC[C@@H]1CN(c2cccc3ccccc23)CCN1CCCCN1C(=O)C2CCCN2C1=O (mixture of isomers); 87
C[C@H]1CN(c2cccc3ccoc23)CCN1CCCN1C(=O)C2CCCN2C1=O (mixture of isomers); 64
C[C@H]1CN(c2cccc3ccoc23)CCN1CCCCN1C(=O)[C@@H]2CCCN2C1=O; 75
CC[C@@H]1CN(c2cccc(OC)c2)CCN1CCCCN1C(=O)C2CCCN2C1=O (mixture of isomers); 64
Cc1ccc(N2CCN(CCCCN3C(=O)C4CCCN4C3=O)[C@@H](C)C2)c2ccccc12 (mixture of isomers); 75
C[C@H]1CN(c2ccccc2)CCN1CCCCN1C(=O)C2CCCN2C1=O (mixture of isomers); 62
